# test_parameters: Ebola virus entry assay, reporter ratio channel; Channel type: primary
Activity calls are given as the source filed them. The rule behind the calls is not given here.
measurement_kind: AC50

I have this molecule here, CN(C)[C@@H]1C(=O)C(C(N)=O)=C(O)[C@@]2(O)C(=O)C3=C(O)c4c(O)cccc4[C@@](C)(O)[C@H]3C[C@@H]12 , and I need its recorded AC50. 31.6 µM (active)

I have this molecule here, CCOC(=O)N1CCC(=C2c3ccc(Cl)cc3CCc3cccnc32)CC1 , and I need its recorded AC50. 6.31 µM (active)

I have this molecule here, CC(C)c1nc(CN(C)C(=O)N[C@H](C(=O)N[C@@H](Cc2ccccc2)C[C@H](O)[C@H](Cc2ccccc2)NC(=O)OCc2cncs2)C(C)C)cs1 , and I need its recorded AC50. 22.4 µM (active)

I have this molecule here, CS(=O)(=O)CCNCc1ccc(-c2ccc3ncnc(Nc4ccc(OCc5cccc(F)c5)c(Cl)c4)c3c2)o1 , and I need its recorded AC50. 3.98 µM (active)

---
I have this molecule here, CCC(=O)O[C@H]1[C@H](O[C@@H]2[C@@H](C)[C@H](O[C@H]3C[C@@](C)(OC)[C@@H](O)[C@H](C)O3)[C@@H](C)C(=O)O[C@H](CC)[C@@](C)(O)[C@H](O)[C@@H](C)C(=O)[C@H](C)C[C@@]2(C)O)O[C@H](C)C[C@@H]1N(C)C , and I need its recorded AC50. 11.2 µM (active)

I have this molecule here, C=C(C)[C@H]1Cc2c(ccc3c2O[C@@H]2COc4cc(OC)c(OC)cc4[C@@H]2C3=O)O1 , and I need its recorded AC50. 8.91 µM (active)

I have this molecule here, Cc1ccc(S(=O)(=O)N[C@@H](CCCCN)C(=O)CCl)cc1 , and I need its recorded AC50. 28.2 µM (active)

Every entry's value here was drawn from PubChem BioAssay (NCATS).
